System: HepG2-A16-CD81 hepatocytes
assay-remarks: HepG2 cytotoxicity screening (CellTiter-Glo)
condition-context: 12pt dose response, maximum inhibition
measured-property: HepG2 cytotoxicity 12pt dose response: Maximum inhibition (%)
Write it as a number; the unit % goes unstated.

Below are worked cases with known answers.
compound | result-value
CC(C)N(CC(N)=O)Cc1csc(COc2ccc(F)cc2)n1 | 68.7
Cc1cc(-c2cnc(NCc3cccnc3)nc2C(C)(C)C)on1 | 45.3

Query string: What value of HepG2 cytotoxicity 12pt dose response: Maximum inhibition (%) has been recorded for this entry: CC(C)(C)OC(=O)N1CCCN(Cc2ccon2)c2ccccc21
Result string: 13.5

Query string: What value of HepG2 cytotoxicity 12pt dose response: Maximum inhibition (%) has been recorded for this entry: COc1cccc(CN2CCN(c3ccc4nncn4n3)C(C)C2)c1 (stereo not drawn)
Result string: 49.9

Query string: What value of HepG2 cytotoxicity 12pt dose response: Maximum inhibition (%) has been recorded for this entry: Cc1[nH]/c(=N\C(=O)c2csc(NCC(C)C)n2)sc1C
Result string: 42.7

Query string: What value of HepG2 cytotoxicity 12pt dose response: Maximum inhibition (%) has been recorded for this entry: CC(C)(C)c1nc(CN2CCCC(Cn3cncn3)C2)cs1 (stereo not drawn)
Result string: -16.6

Query string: What value of HepG2 cytotoxicity 12pt dose response: Maximum inhibition (%) has been recorded for this entry: NC(=O)C1CN(C(=O)Nc2cc(Cl)cc(Cl)c2)CCO1 (stereo not drawn)
Result string: 92.5

Query string: What value of HepG2 cytotoxicity 12pt dose response: Maximum inhibition (%) has been recorded for this entry: COc1c(CNCc2ccc(C(=O)N(C)C(C)C)cc2)c(C)nn1C
Result string: 53.2

Query string: What value of HepG2 cytotoxicity 12pt dose response: Maximum inhibition (%) has been recorded for this entry: CCc1cnc(N)nc1NC(C)c1ccc(C)c(C)c1 (stereo not drawn)
Result string: 56

---

assay-remarks: HepG2 cytotoxicity screening (CellTiter-Glo)
condition-context: human, uninfected HepG2-A16-CD81 (EGFP) hepatocytes
measured-property: inhibition at 2 µM (%)
Write it as a number; the unit % goes unstated.

Below are worked cases with known answers.
compound | result-value
c1ccc(OC2COC3(CCN(Cc4ccccn4)CC3)C2)cc1 (stereo not shown) | 16.7
Cc1ncc(C(=O)NC2CCN(CCOc3ccc(Br)cc3)CC2)s1 | 1.78
Cc1cc(CN2CCN(C(c3ccccc3)c3ccccc3)CC2)no1 | 0.21
CNC(=O)CCC(=O)N1CCOC(c2ccc3cc(OC)ccc3c2)C1 (stereo not shown) | -0.85
CC(C)CC(C)N(C)C(=O)CCn1cccn1 (stereo not shown) | -0.31
COc1ccc(CN2CCC=C(C(C)NC(C)=O)C2)cc1 (stereo not shown) | 6.35
COc1cccc(-n2nnc(C(=O)N3CCN(C)CC3C)c2C)c1 (stereo not shown) | 69.9
CC(C)NC(=O)CNC(=O)C12CCC(=O)N1c1cc(Cl)ccc1S2 (stereo not shown) | 3.84
CC(=O)Nc1ccc(-n2ccc3nc(N4CCCC4)ncc3c2=O)cc1 | 0
CCc1cc(=O)[nH]c(-n2nc(C3CC3)cc2NC(=O)C2CC2)n1 | -1.99

Query string: What value of inhibition at 2 µM has been recorded for this entry: O=C(NC1CC1)c1cc(NC(=O)N2CCOCC2)ccc1Cl
Result string: 1.26

Query string: What value of inhibition at 2 µM has been recorded for this entry: O=C(c1ccc(Br)o1)N1CCN(Cc2ccc(OC(F)(F)F)cc2)CC1
Result string: 0

Query string: What value of inhibition at 2 µM has been recorded for this entry: CC(C)c1cc(=O)[nH]c(-n2nc(C3CC3)cc2N)n1
Result string: 3.79

Query string: What value of inhibition at 2 µM has been recorded for this entry: Cc1[nH]/c(=N\C(=O)c2csc(NCC(C)C)n2)sc1C
Result string: 0

Query string: What value of inhibition at 2 µM has been recorded for this entry: O=C(O)c1cccnc1N1CCN(Cc2ccc(F)cc2)C(CCO)C1 (stereo not shown)
Result string: 9.42

Query string: What value of inhibition at 2 µM has been recorded for this entry: O=C(O)CSc1nnc(-c2cn[nH]c2)n1-c1ccccc1C(F)(F)F
Result string: 6.23

Query string: What value of inhibition at 2 µM has been recorded for this entry: N[C@@H]1CC[C@H](C(=O)NCCn2cc(Cl)cn2)C1
Result string: -3.85

Query string: What value of inhibition at 2 µM has been recorded for this entry: COc1cc(C)c(CN2CCc3nc4ccsc4c(=O)n3CC2)cc1C
Result string: 0

Query string: What value of inhibition at 2 µM has been recorded for this entry: CCn1nc(C)c2c1cnn2CCNS(=O)(=O)c1cccs1
Result string: -1.63

Query string: What value of inhibition at 2 µM has been recorded for this entry: Nc1cc(N2CCC(c3cc(Cc4ccccc4)n[nH]3)CC2)ccn1
Result string: -2.51

Query string: What value of inhibition at 2 µM has been recorded for this entry: CC(=O)c1c(F)cccc1N1CCC(Cc2cccnc2)CC1
Result string: 15.8

Query string: What value of inhibition at 2 µM has been recorded for this entry: COc1ccccc1C1CCN(c2ccc3cc[nH]c3n2)CC1
Result string: 5.11

Query string: What value of inhibition at 2 µM has been recorded for this entry: Cc1nc(NCc2nonc2C)cc(C(C)Cn2nc(C)c(C)c2C)n1 (stereo not shown)
Result string: 87.2

Query string: What value of inhibition at 2 µM has been recorded for this entry: Cc1cccc(Nc2cc(C3CCCN(CC(N)=O)C3)ccn2)n1 (stereo not shown)
Result string: 1.68

Query string: What value of inhibition at 2 µM has been recorded for this entry: COc1ccc(F)c(CN2CCCC(O)(CNCC(C)(C)C)C2=O)c1 (stereo not shown)
Result string: 5.34

---

Tested on: P. falciparum Dd2 (PfLuc) line expressing firefly luciferase, asexual blood stage
assay-remarks: microbe, parasite or virus in culture
Type: cell-based, Plasmodium falciparum
condition-context: Plasmodium falciparum, DD2; 11-pt dose response, 96hr; read-out: CDD P. falciparum Luciferase ABS 11-pt Reconfirmation Dose Response (96hr): Maximum inhibition (%)
# reported Emax; entries follow
Write it as a number; the unit % goes unstated.

Below are worked cases with known answers.
molecule | u | Emax
Clc1cccc(N[C@H]2CCCN[C@H]2Cc2ccccc2)c1 [DDD01058816] | % | 101
CCOc1ccc(Br)cc1C1CCCN1 (stereo not shown) [DDD01034787] | % | 86.3
Brc1cccc(C2(CNCc3cc[nH]c3)CCOCC2)c1 [DDD01076928] | % | 99.3
Cc1c(C(=O)N2CCC(N3CCCCC3)CC2)n(C)c2ccc(Cl)cc12 [DDD01255900] | % | 98.9
Cc1cc2nc(-c3cn(C4CCNCC4)nn3)[nH]c2cc1C [DDD01250700] | % | 98.7

Query string: What value of Emax has been recorded for this entry: CCOc1cccc(CN2CCCC(Nc3ccc(F)cc3)C2)c1O (stereo not shown) [DDD01252745]
Result string: 99.7

Query string: What value of Emax has been recorded for this entry: CC(O)CN1CCC(CNCc2cccc(Br)c2)CC1 (stereo not shown) [DDD01304344]
Result string: 98.2

Query string: What value of Emax has been recorded for this entry: CC1(C)CN(C(CNC2=NCCN2)c2ccc(Cl)cc2)CCO1 (stereo not shown) [DDD01066238]
Result string: 81.2

Query string: What value of Emax has been recorded for this entry: CN(C)[C@@H]1CCN(c2ncccn2)[C@H]1Cc1ccccc1 [DDD01036700]
Result string: 80.9

Query string: What value of Emax has been recorded for this entry: CN(CCO)C[C@@H]1CN(C2CCN(c3ccccc3Cl)CC2)C[C@@H]1CO [DDD01243670]
Result string: 99.6

---

System: P. falciparum (NF54) stage V gametocytes
assay-remarks: Stage V gametocyte viability assay (MitoTracker Red CMXRos high content imaging)
Type: cell-based, Plasmodium falciparum
condition-context: Plasmodium falciparum, NF54, read-out: Stg V Gam dose response IC50 (µM) (n=3); 10-point dose response, n=3, 72 h
# reported IC50; entries follow
Write it as a number; the unit µM goes unstated.

compound | u | IC50
Cc1cccc(CN2C[C@@H]3COC[C@H](NS(C)(=O)=O)[C@@H]3C2)n1 | µM | 1.54
CCc1[nH]c2c(CNc3nc(C)cc(NC)n3)cc(C)cc2c1C | µM | 3.76
Cc1nn(C)cc1C1=NS(=O)(=O)N(C)C(C(=O)Nc2ccc(Br)cc2)=C1 | µM | 2.78
CCCc1nc2c(c(C)c(C)n2CCN(C)C)c(N)c1CC | µM | 0.97

Query string: What value of IC50 has been recorded for this entry: Cc1cccc(CN2CCC3(CCN(c4cccnc4)C3=O)C2)n1 (centres unmarked)
Result string: 0.46

---

Tested on: P. falciparum Dd2
assay-remarks: SYBR green I asexual blood stage proliferation assay (96 h)
Format: cell-based, Plasmodium falciparum
condition-context: Plasmodium falciparum, DD2; Sybr Green I, 11-pt dose response, 96hr; read-out: CDD P. falciparum Sybr Green I ABS 11-pt Reconfirmation Dose Response (96hr): Maximum inhibition (%)
measured-property: Emax (%)
Write it as a number; the unit % goes unstated.

Below are worked cases with known answers.
compound | study-target | Emax / %
CNC(=O)CCN(C)CC1(c2ccc(Br)cc2)CC1 [DDD01064880] | P. falciparum Dd2 | 73.3
CCC(C)(C)n1nnnc1C(c1cccs1)N1CCc2ccccc2C1 (stereo not shown) [DDD01056726] | P. falciparum Dd2 | 79.3
Fc1ccc(F)c(CN2CCC(c3cc4ncccc4cn3)CC2)c1 [DDD01058752] | P. falciparum Dd2 | 90.5
NC1(C(=O)NCC2CCCN(Cc3ccccc3F)C2)CCCC1 (stereo not shown) [DDD01249015] | P. falciparum Dd2 | 77.3
CCCn1ccnc1CN1CCCC1c1ccccn1 (stereo not shown) [DDD01250556] | P. falciparum Dd2 | 68.5
CC(C)N1CCC2(CCCN(c3nccc(C(F)(F)F)n3)C2)CC1 [DDD01028790] | P. falciparum Dd2 | 76.4

Query string: What value of Emax has been recorded for this entry: CN1CCN(CC(NCc2ccc(F)c(F)c2)c2ccccc2)CC1 (stereo not shown) [DDD01069631]
Result string: 85.4

Query string: What value of Emax has been recorded for this entry: CC(NCC1CCN(CCO)CC1)c1ccc(OC(F)(F)F)cc1 (stereo not shown) [DDD01073716]
Result string: 95.9

Query string: What value of Emax has been recorded for this entry: CN(C)CCN(C)C(=O)Cn1cccc2cc(-c3ccc(F)cc3)nc1-2 [DDD01059044]
Result string: 99.6

Query string: What value of Emax has been recorded for this entry: COCCC1(CNC(=O)Nc2ccnc(C)c2)CCCC1 [DDD01077091]
Result string: 47.9
